Target: CCR9 (Homo sapiens)
Construct: CCR9-expressing cells (such as a T cell line MOLT-4 cells); host or cells: MOLT-4
Test: chemotaxis (conventional migration) assay and/or calcium mobilization (calcium flux) assay, TECK-induced, MOLT-4 cells
Assay type: cell-based
Details: Table 3, assay not specified per compound, read-out: IC50, activity in either or both of the chemotaxis assay and calcium mobilization assays
Measured Parameter: IC50

> print(dat)
                                   molecule          measured.on  experimental.value
1  CN(C)C(c1ccncc1)c1cc(Cl)ccc1NS(=O)(=O)c1ccc(C(C)(C)C)cc1 (stereo not drawn)  CCR9 (Homo sapiens)         0.5 to 5 µM
2  CC(C)(C)c1ccc(S(=O)(=O)Nc2ccc(Cl)cc2C(C)(C)c2cc[n+]([O-])cc2)cc1  CCR9 (Homo sapiens)         0.5 to 5 µM
3  CC(C)(C)c1ccc(S(=O)(=O)Nc2ccc(Cl)cc2C(C)(O)c2cc[n+]([O-])cc2)cc1 (stereo not drawn)  CCR9 (Homo sapiens)         0.5 to 5 µM

====

# IC50 annotations
Target: CCR9 (Homo sapiens, UniProt P51686)
Construct: CCR9-expressing cells (such as a T cell line MOLT-4 cells); host or cells: MOLT-4
Sequence (P51686 1-369): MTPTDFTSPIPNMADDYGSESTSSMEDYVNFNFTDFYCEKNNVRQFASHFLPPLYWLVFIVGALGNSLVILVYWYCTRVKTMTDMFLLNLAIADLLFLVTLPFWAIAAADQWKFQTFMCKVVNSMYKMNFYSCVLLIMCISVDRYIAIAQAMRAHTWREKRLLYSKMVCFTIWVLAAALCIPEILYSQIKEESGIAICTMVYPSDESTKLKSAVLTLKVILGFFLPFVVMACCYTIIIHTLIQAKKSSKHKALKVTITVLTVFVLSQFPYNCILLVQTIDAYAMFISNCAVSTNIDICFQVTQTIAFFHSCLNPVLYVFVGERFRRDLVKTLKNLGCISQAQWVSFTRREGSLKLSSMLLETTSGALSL
Test: chemotaxis (conventional migration) assay and/or calcium mobilization (calcium flux) assay, TECK-induced, MOLT-4 cells
Type: cell-based
Conditions: Table 4 (++), assay not specified per compound, read-out: IC50, activity in either or both of the chemotaxis assay and calcium mobilization assays
Measured Parameter: IC50

> print(dat)
                               entry.smiles  experimental.value
1  COc1ccc(S(=O)(=O)Nc2ccc(Cl)cc2-c2ccc(C)cc2)cc1          2 to 10 µM
2  CC(C)(C)c1ccc(S(=O)(=O)Nc2ccccc2-c2ncc(-c3ccccc3)[nH]2)cc1          2 to 10 µM
3  COc1ccc(-c2cc(Cl)ccc2NS(=O)(=O)c2ccc(OC)cc2)cc1          2 to 10 µM
4  COc1ccc(S(=O)(=O)Nc2ccc(Cl)cc2-c2ccc(Cl)cc2)cc1          2 to 10 µM
5  COc1ccc(S(=O)(=O)Nc2ccc(Cl)cc2-c2ccccc2OC)cc1          2 to 10 µM
6  COc1ccc(S(=O)(=O)Nc2ccc(Cl)cc2-c2cccc(OC)c2)cc1          2 to 10 µM
7  COc1ccc(S(=O)(=O)Nc2ccc(Cl)cc2-c2ccccc2)cc1          2 to 10 µM
8  COc1ccc(S(=O)(=O)Nc2ccc(Cl)cc2-c2ccc(F)cc2)cc1          2 to 10 µM

These measurements were taken from patent US7932252B2.
